Target: T1, 4H2253-bH
T1 chain: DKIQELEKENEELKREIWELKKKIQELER
Test: two-hybrid library CCNG1;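 also: natural log of median RNA to DNA barcode read ratio; higher means stronger binding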
Recorded interaction score values for a group of binders are listed next.
Field format: numeric only.

>  <BINDER>
DEIQELEKENEELERKIWELEKKIQELKR [4H166-bH]

>  <interaction score>
1.03

$$$$
>  <BINDER>
DKIQELEKENEELKREIWELKKKIQELER [4H2253-bH]

>  <interaction score>
0.888

$$$$

Entry under test: DKIQELEKEIEELKRKNWELEKEIQELKR [4H2162-bH] . Its interaction score was -0.234

Measured interaction score of DKIQELEKENEELERKNWELKKEIQELER [4H2233-bH] : -0.0513

Looking up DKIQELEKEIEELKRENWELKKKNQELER [4H2143-bH] , I found its interaction score recorded as -1.13
